# assayTarget: T1, IFN-α4a (human, UniProt P05014 24-189)
# T1 construct: Recombinant, HEK293; also called IFN-αM1
# methodDescription: ProteOn SPR, cell supernatant;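 further: each binding measurement used just a single antigen concentration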
valueKind: Kd (nM)
Unit nM implied. Number only.

Past entries and their recorded results:
binder	Kd / nM
IFWM3410 (antibody, IgG1, V domains shown, mAb; IgG1/kappa said of the parent and of selected mAbs; also called IFWB3145) VH: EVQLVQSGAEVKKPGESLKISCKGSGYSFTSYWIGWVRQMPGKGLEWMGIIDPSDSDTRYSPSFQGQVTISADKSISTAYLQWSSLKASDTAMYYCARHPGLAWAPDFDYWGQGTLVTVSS VL: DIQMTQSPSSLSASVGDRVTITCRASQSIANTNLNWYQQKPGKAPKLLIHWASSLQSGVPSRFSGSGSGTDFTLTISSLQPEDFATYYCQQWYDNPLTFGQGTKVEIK	0.086
IFWM3383 (antibody, IgG1, V domains shown, mAb; IgG1/kappa said of the parent and of selected mAbs; also called IFWB3118) VH: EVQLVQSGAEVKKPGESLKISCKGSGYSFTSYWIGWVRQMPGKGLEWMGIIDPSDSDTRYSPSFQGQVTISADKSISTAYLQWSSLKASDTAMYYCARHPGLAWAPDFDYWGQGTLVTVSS VL: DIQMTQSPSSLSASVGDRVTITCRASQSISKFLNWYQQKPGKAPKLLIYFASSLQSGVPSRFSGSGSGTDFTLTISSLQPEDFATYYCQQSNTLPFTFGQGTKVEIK	0.143

Q. Report measured Kd; entry is IFWM3372 (antibody, IgG1, V domains shown, mAb; IgG1/kappa said of the parent and of selected mAbs; also called IFWB3107) VH: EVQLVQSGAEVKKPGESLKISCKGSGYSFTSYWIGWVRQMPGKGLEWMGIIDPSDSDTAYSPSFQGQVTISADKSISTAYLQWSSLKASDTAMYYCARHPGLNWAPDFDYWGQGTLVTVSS VL: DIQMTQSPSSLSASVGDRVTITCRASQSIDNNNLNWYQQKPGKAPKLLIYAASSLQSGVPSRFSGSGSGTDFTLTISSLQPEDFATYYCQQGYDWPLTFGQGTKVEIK
A. 0.432
